system: Rattus norvegicus; experiment: Antihypertensive activity in spontaneously hypertensive rat model assessed as reduction in blood pressure at 3 mg/kg, po after 3 hrs; assay type: functional; design: scale not given: the % may be the effect or the level left
parameter measured: Activity (%)
Express the result in % but write the number alone.

Field: example entries. Status: answers known.
CC1CCC2=C(C1)c1c(O)cc(C(C)C(C)CCc3ccncc3)cc1OC2(C)C (centres undefined)
19
CC1CCC2=C(C1)c1c(O)cc(C(C)CCCCc3ccc(F)cc3)cc1OC2(C)C (centres undefined)
33

Query :: Quick one: Activity for C#CCN1CCC2=C(C1)c1c(O)cc(C(C)C(C)CCCCC)cc1OC2(C)C (centres undefined) ?
Result :: 7

Query :: Quick one: Activity for Cc1ccc(CCCC(C)c2cc(O)c3c(c2)OC(C)(C)C2=C3CC(C)CC2)cc1 (centres undefined) ?
Result :: 26

Query :: Quick one: Activity for CCCCCC(C)C(C)c1cc(O)c2c(c1)OC(C)(C)C1=C2CC(C)CC1 (centres undefined) ?
Result :: 37

Query :: Quick one: Activity for CC1CCC2=C(C1)c1c(O)cc(C(C)C(C)CCCc3ccc(F)cc3)cc1OC2(C)C (centres undefined) ?
Result :: 33

Query :: Quick one: Activity for CC1CCC2=C(C1)c1c(O)cc(C(C)C(C)Cc3ccc(F)cc3)cc1OC2(C)C (centres undefined) ?
Result :: 21

Query :: Quick one: Activity for CC1CCC2=C(C1)c1c(O)cc(CCCCCc3ccc(F)cc3)cc1OC2(C)C (centres undefined) ?
Result :: 27

Query :: Quick one: Activity for CC1CCC2=C(C1)c1c(O)cc(C(C)CCc3ccc(F)cc3)cc1OC2(C)C (centres undefined) ?
Result :: 28

The reported numbers originate from ChEMBL document CHEMBL3272295.
